The measured values listed here are drawn from ChEMBL document CHEMBL1201862.

# System: NCI-H522
# Protocol Summary: NCI tumour cell line growth inhibition, 48 h
Active and inactive are the calls of the source. Cut-off read from the data, not from the text of the source: active = GI50 up to about 1.1 µM and inactive = higher.
Possible outcomes: yes for active, no for inactive

>>> label_value("O=C(CBr)NCCc1c[nH]c2ccccc12")
"yes"
>>> label_value("COC1(OC)CC2C(=O)N(Cc3ccccc3)C1C(S(=O)(=O)c1ccccc1)C2S(=O)(=O)c1ccccc1 (stereo not given)")
"no"
>>> label_value("O=C(Cc1ccccc1)N/N=C(/c1nc2ccc([N+](=O)[O-])cc2nc1O)C(O)c1ccccc1Cl (stereo not given)")
"no"
>>> label_value("COc1cc([C@@H]2c3cc4c(cc3[C@@H](NC(=O)c3ccc(OC(C)=O)cc3)C3COC(=O)[C@@H]32)OCO4)cc(OC)c1O (stereo not given in full)")
"no"
>>> label_value("O=C(NCCCN1CCN(CCCNC(=O)c2cc(-c3ccccc3)nc3ccccc23)CC1)c1cc(-c2ccccc2)nc2ccccc12")
"no"
>>> label_value("CN1C(=O)N(c2nc3ccccc3[nH]2)C(C)(C)C1=O")
"no"
>>> label_value("N#Cc1ccc(Oc2nc3ccccc3nc2-c2ccccc2)cc1")
"no"
>>> label_value("CC1(c2cccc(N)c2)C2C(=O)NC(=O)C1C(=O)NC2=O (stereo not given)")
"no"
>>> label_value("COc1ccccc1NC1=NCC(C)S1 (stereo not given)")
"no"
>>> label_value("N#CC(C(=O)Nc1ccccc1)C1=C(Cl)C(=O)c2ccccc2C1=O (stereo not given)")
"no"
>>> label_value("CC[C@H]1OC([C@H](O)C/C=C\\C#C[Si](C)(C)C)C/C=C\\C[C@H]1O[Si](C)(C)C(C)(C)C (stereo not given in full)")
"no"
>>> label_value("O=C1OC(=O)C23CSCC12C1C=CC3O1 (stereo not given)")
"no"
>>> label_value("Nc1ccc(SC23CC4CC(CC(C4)C2)C3)cc1")
"no"
>>> label_value("COc1cc2c(OC)c3cc(C)oc(=O)c3c(O)c2c(O)c1-c1c(OC)cc2c(OC)c3cc(C)oc(=O)c3c(O)c2c1O")
"no"
>>> label_value("COC(=O)C1CC2CCC1(O[Si](C(C)C)(C(C)C)C(C)C)C(O)C2 (stereo not given)")
"no"
>>> label_value("COc1ccc(C2CC(c3ccccc3)=Nc3c(-c4ccccc4)nnn32)cc1 (stereo not given)")
"no"
>>> label_value("COc1cc(CO)cc2c1[nH]c1ccccc12 [KOENOLINE]")
"no"
>>> label_value("COC1=CC(=O)[C@@]2(C)C(C)[C@H](c3ccccc3)[C@H]2C1=O (stereo not given in full)")
"no"
>>> label_value("CCN1C(=O)C(C)S/C1=N\\NC(=O)CSc1nc2ccccc2c(=O)n1CC (stereo not given)")
"no"
>>> label_value("CC(C)C1=C(O)C(=O)C2=C(C1=O)C(OC=O)C(O)C1C(C)(C)CCCC21C (stereo not given)")
"no"
